target: MAGI2_4, Q86UL8; test: holdup assay; parameters: key: below the threshold = too weak to quantify, mostly under pKd 3.1 to 4; conditions: plain residues with an end cap or a label only (N-terminal biotin on a linker: ttds)
Sequence (Q86UL8 772-865): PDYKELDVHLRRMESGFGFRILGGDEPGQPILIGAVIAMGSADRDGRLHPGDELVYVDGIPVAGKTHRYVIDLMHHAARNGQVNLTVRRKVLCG

{"binder": "STLTIFETAL [ABCC4, O15439]", "pKd": 3.54}
{"binder": "ERKLSSESQV [LRP4, O75096]", "pKd": 3.83}
{"binder": "VLRLQSETSV [VANGL1, Q8TAA9]", "pKd": 4.42}
{"binder": "QSARYRDTEL [TJP2, Q9UDY2]", "pKd": 3.74}
{"binder": "SRPQRTQTQV [HPV67-E6, A4U7F2]", "pKd": 4.14}
